# Test system: KM12
# assay-remarks: NCI tumour cell line growth inhibition, 48 h
The source made the active and inactive calls. Cut-off read from the data, not from the text of the source: active = GI50 up to about 1.1 µM and inactive = higher.
readout-kind: GI50

Solved entries:
molecule	GI50
S=c1nc(Nc2ccccc2)c2c3c(sc2[nH]1)CCCC3	> 100 µM (inactive)
O=c1[nH]nc(Cc2ccccc2)n1/N=C/c1c(O)ccc2ccccc12	19.7 µM (inactive)
COc1c(O)ccc(C2=Cc3ccc(O)cc3OC2)c1OC	7.33 µM (inactive)
CC(=O)Nc1oc(C)nc1C#N	> 100 µM (inactive)
COc1cc([C@@H]2c3cc4c(c(O[C@@H]5O[C@H]6CO[C@@H](C)O[C@H]6[C@H](O)[C@@H]5O)c3C[C@H]3COC(=O)[C@@H]32)OCO4)cc(OC)c1O	8.75 µM (inactive)

input: Report GI50 for NC(N)=NCCC[C@H](N)C(=O)NCC(=O)N[C@@H](CC(=O)O)c1ncc(NC(=O)C(F)(F)F)o1
output: > 25 µM (inactive)

input: Report GI50 for O=S(=O)(O)c1ccc2c(/N=N/c3ccc(Cl)cc3)c(O)ccc2c1
output: > 100 µM (inactive)

input: Report GI50 for CN1CCN(CCCBr)CC1
output: > 100 µM (inactive)

input: Report GI50 for O=C(/C=C/c1ccccc1)Oc1cccc(Br)c1
output: 31.8 µM (inactive)

input: Report GI50 for CC(C)C1COC(C(C)(C)C2=N[C@@H](C(C)C)CO2)=N1 (stereo not given in full)
output: > 100 µM (inactive)

* * *

# Tested on: HCT-116
# assay-remarks: NCI tumour cell line growth inhibition, 48 h
Active and inactive are the calls of the source. No stated cut-off is given here; in the data, active = GI50 up to about 1.1 µM and inactive = higher.
Respond only with the outcome that fits, drawn from active, inactive

compound	class-assignment
Cc1c(C)c(C)c(Cn2[nH]c(=O)n(C)c2=O)c(C)c1C	inactive
CCOC(=O)/C(C#N)=N\Nc1ccc(-n2c(C)nc3ccccc3c2=O)cc1	inactive
CCCCCCCCCC[C@H](O)[C@H]1CC[C@@H]([C@@H](O)CC[C@H](O)[C@@H]2CCC(CCCCCCC[C@@H](O)CC3=C[C@H](C)OC3=O)O2)O1 (stereo partly drawn)	inactive
CCOC(=O)NC(Nc1ccc(F)cc1F)(C(F)(F)F)C(F)(F)F	inactive

input: What classification did CC1=COC(C)(C=C(C#N)C#N)CC1 (stereo not drawn) end up with in this test?
output: inactive

input: What classification did COc1ccc2cc(CNCCCCCCCCNCc3ccc4cc(OC)ccc4c3)ccc2c1 end up with in this test?
output: inactive

input: What classification did N#CC1(C#N)C2CCCCC23OC(=N)C1(C#N)C(c1ccco1)O3 (stereo not drawn) end up with in this test?
output: inactive

input: What classification did COC(=O)CCNC(=O)OCc1ccccc1 end up with in this test?
output: inactive

input: What classification did Cc1ccc(Cc2cc(N3CCN(c4cccc(Cl)c4)CC3)nnc2C)cc1 end up with in this test?
output: inactive

input: What classification did COc1nc(-c2c[nH]c3ccccc23)cnc1N end up with in this test?
output: inactive

input: What classification did Cc1c2c(cc3c1[nH]c1ccccc13)C(c1ccc(F)cc1)=NCC2 end up with in this test?
output: active

input: What classification did CC(C)N(C(=O)C1(C)CC1)C(C)C end up with in this test?
output: inactive

input: What classification did COc1ccc(/C=N/Nc2nc3ccccc3c(=O)n2-c2ccccc2)c(OCc2ccccc2)c1 end up with in this test?
output: inactive

input: What classification did COc1cc2c(cc1OC)[C@@H](Nc1ccc(F)cc1)C1COC(=O)[C@@H]1C2c1cc(OC)c(O)c(OC)c1 (stereo partly drawn) end up with in this test?
output: inactive

input: What classification did CNC(=O)CN(C)C(=O)CCC(=O)N(C)C end up with in this test?
output: inactive

input: What classification did COc1cc2c(cc1OC)C(=O)/C(=C/c1ccc(O)cc1)CC2 end up with in this test?
output: inactive

input: What classification did COc1cc2cc[n+](C)c(Cc3ccccc3)c2cc1OC end up with in this test?
output: inactive

input: What classification did CC(=O)c1ccc(Nc2c3c(nc4ccccc24)CCCC3)cc1 end up with in this test?
output: inactive

input: What classification did COc1c(O)ccc(C2=Cc3ccc(O)cc3OC2)c1OC end up with in this test?
output: inactive

input: What classification did CC(=O)Nc1c(C)cc2c(nc3n2CCC3O)c1[N+](=O)[O-] (stereo not drawn) end up with in this test?
output: inactive

input: What classification did COC(=O)c1ccccc1NC(=O)C(=O)CC(=O)c1ccccc1NC1=CC(=O)C(=O)c2ccccc21 end up with in this test?
output: inactive

input: What classification did CC1(C)NC2C(=O)c3c([nH]c4ccccc34)[C@]3(C)CCC1CC23 (stereo partly drawn) end up with in this test?
output: inactive

input: What classification did Cn1c2c(c3ccccc31)C1C(=O)N(c3ccccc3)C(=O)C1CC2 (stereo not drawn) end up with in this test?
output: inactive
